Provide the recorded Z Score for the entries that follow.
Biological target: T1, P-cadherin-ECD1-3-Fc protein (human P-cadherin-Fc) (human, UniProt P22223 108-440)
T1 construct: Construct was expressed with signal peptide and pro-peptide (PACE co-transfected to process the propeptide); not shown: hinge and CH2 and CH3 domains of human IgG1
T1 sequence (P22223 108-440): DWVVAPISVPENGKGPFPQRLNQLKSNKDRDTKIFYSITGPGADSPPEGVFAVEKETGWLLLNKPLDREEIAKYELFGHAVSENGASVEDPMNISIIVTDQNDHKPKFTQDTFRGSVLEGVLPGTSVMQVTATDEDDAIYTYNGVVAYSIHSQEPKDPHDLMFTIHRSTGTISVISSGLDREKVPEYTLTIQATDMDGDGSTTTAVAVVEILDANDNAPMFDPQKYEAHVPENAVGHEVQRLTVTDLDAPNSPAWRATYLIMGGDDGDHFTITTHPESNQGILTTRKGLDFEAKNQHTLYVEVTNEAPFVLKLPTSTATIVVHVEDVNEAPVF
Assay: phage scFv ELISA, coated P-cadherin-ECD1-3-Fc
Method: ScFvs may be expressed on the surface of a phage particle. […] P-cadherin-ECD1-3-Fc protein or negative control protein was coated overnight at 4° C. on 96-well Nunc Maxisorp® plates (Thermo Fisher Scientific, Madison, Conn.) at a concentration of 2 μg/mL in PBS+Ca²⁺ and Mg²⁺. […] Signal was developed using TMB (SurModics, Eden Prairie, Minn.), the reaction stopped with H₂SO₄ and the absorbance read at 450 nm on an EnVision® plate reader (Perkin Elmer, Waltham, Mass.).
// no unit string in output, number only

Exam item: Return the recorded Z Score value; entry: anti-P-cadherin scFv 153 alanine-mutant L1.9-Ala (scFv, V domains shown, scFv on phage) VH: EVQLVQSGAEVKKPGASVKVSCKASGYTFTSYGISWVRQAPGQGLEWMGWISAYNGNTNYAQKLQGRVTMTTDTSTSTAYMELRSLRSDDTAVYYCATIDTANAFGIWGQGTMVTVSS VL: QSVLTQPPSVSAAPGQKVTISCSGSSSNIGANYVSWYQQLPGTAPKLLIYDNNKRPSGIPDRFSGSKSGTSATLGITGLQTGDEADYYCGTWDSSLSGVVFGGGTKLTVL
Marked response: 0.6

Exam item: Return the recorded Z Score value; entry: anti-P-cadherin scFv 153 alanine-mutant L2.7-Ala (scFv, V domains shown, scFv on phage) VH: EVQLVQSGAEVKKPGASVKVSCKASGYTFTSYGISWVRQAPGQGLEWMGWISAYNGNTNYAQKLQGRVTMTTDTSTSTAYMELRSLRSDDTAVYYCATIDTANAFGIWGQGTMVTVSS VL: QSVLTQPPSVSAAPGQKVTISCSGSSSNIGNNYVSWYQQLPGTAPKLLIYDNNKRPAGIPDRFSGSKSGTSATLGITGLQTGDEADYYCGTWDSSLSGVVFGGGTKLTVL
Marked response: 1.3

Exam item: Return the recorded Z Score value; entry: anti-P-cadherin scFv 153 alanine-mutant L1.6-Ala (scFv, V domains shown, scFv on phage) VH: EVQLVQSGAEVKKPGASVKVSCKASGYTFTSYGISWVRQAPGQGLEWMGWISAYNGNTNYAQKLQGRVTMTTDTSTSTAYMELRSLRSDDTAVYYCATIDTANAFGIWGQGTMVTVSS VL: QSVLTQPPSVSAAPGQKVTISCSGSSSAIGNNYVSWYQQLPGTAPKLLIYDNNKRPSGIPDRFSGSKSGTSATLGITGLQTGDEADYYCGTWDSSLSGVVFGGGTKLTVL
Marked response: -0.3

Exam item: Return the recorded Z Score value; entry: anti-P-cadherin scFv 153 alanine-mutant L2.5-Ala (scFv, V domains shown, scFv on phage) VH: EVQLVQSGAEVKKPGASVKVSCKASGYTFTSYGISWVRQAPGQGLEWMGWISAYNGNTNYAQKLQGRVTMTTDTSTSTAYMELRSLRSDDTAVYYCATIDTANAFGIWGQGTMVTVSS VL: QSVLTQPPSVSAAPGQKVTISCSGSSSNIGNNYVSWYQQLPGTAPKLLIYDNNKAPSGIPDRFSGSKSGTSATLGITGLQTGDEADYYCGTWDSSLSGVVFGGGTKLTVL
Marked response: 1.5

Exam item: Return the recorded Z Score value; entry: anti-P-cadherin scFv 153 alanine-mutant L2.4-Ala (scFv, V domains shown, scFv on phage) VH: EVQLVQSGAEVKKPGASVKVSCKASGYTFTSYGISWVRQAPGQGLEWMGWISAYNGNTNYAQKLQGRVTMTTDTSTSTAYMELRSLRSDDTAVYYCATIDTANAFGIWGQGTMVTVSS VL: QSVLTQPPSVSAAPGQKVTISCSGSSSNIGNNYVSWYQQLPGTAPKLLIYDNNARPSGIPDRFSGSKSGTSATLGITGLQTGDEADYYCGTWDSSLSGVVFGGGTKLTVL
Marked response: 1.3

Exam item: Return the recorded Z Score value; entry: anti-P-cadherin scFv 153 alanine-mutant L1.3-Ala (scFv, V domains shown, scFv on phage) VH: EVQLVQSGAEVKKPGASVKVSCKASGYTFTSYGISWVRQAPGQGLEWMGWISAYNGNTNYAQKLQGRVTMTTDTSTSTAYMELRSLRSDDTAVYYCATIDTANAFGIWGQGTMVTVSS VL: QSVLTQPPSVSAAPGQKVTISCSGASSNIGNNYVSWYQQLPGTAPKLLIYDNNKRPSGIPDRFSGSKSGTSATLGITGLQTGDEADYYCGTWDSSLSGVVFGGGTKLTVL
Marked response: 1.4

Exam item: Return the recorded Z Score value; entry: anti-P-cadherin scFv 153 alanine-mutant L1.12-Ala (scFv, V domains shown, scFv on phage) VH: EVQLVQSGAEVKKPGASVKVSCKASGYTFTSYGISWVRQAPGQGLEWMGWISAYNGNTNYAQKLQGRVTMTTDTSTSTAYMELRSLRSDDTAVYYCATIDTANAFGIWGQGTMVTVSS VL: QSVLTQPPSVSAAPGQKVTISCSGSSSNIGNNYASWYQQLPGTAPKLLIYDNNKRPSGIPDRFSGSKSGTSATLGITGLQTGDEADYYCGTWDSSLSGVVFGGGTKLTVL
Marked response: 1.6

Exam item: Return the recorded Z Score value; entry: anti-P-cadherin scFv 153 alanine-mutant L3.4-Ala (scFv, V domains shown, scFv on phage) VH: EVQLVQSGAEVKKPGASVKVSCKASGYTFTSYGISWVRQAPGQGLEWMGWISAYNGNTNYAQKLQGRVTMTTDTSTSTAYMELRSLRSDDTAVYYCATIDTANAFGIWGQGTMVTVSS VL: QSVLTQPPSVSAAPGQKVTISCSGSSSNIGNNYVSWYQQLPGTAPKLLIYDNNKRPSGIPDRFSGSKSGTSATLGITGLQTGDEADYYCGTWASSLSGVVFGGGTKLTVL
Marked response: -0.6

Exam item: Return the recorded Z Score value; entry: anti-P-cadherin scFv 153 (parental clone 153), displayed on phage (scFv, V domains shown, scFv expressed on the surface of phage) VH: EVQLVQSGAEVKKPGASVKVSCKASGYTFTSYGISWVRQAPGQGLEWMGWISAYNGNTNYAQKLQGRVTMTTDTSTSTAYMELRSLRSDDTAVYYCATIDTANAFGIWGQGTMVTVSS VL: QSVLTQPPSVSAAPGQKVTISCSGSSSNIGNNYVSWYQQLPGTAPKLLIYDNNKRPSGIPDRFSGSKSGTSATLGITGLQTGDEADYYCGTWDSSLSGVVFGGGTKLTVL
Marked response: 0

Exam item: Return the recorded Z Score value; entry: anti-P-cadherin scFv 153 alanine-mutant L3.8-Ala (scFv, V domains shown, scFv on phage) VH: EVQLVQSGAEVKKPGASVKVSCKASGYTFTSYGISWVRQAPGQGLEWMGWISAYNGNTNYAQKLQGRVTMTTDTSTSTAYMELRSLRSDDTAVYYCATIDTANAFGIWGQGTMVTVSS VL: QSVLTQPPSVSAAPGQKVTISCSGSSSNIGNNYVSWYQQLPGTAPKLLIYDNNKRPSGIPDRFSGSKSGTSATLGITGLQTGDEADYYCGTWDSSLAGVVFGGGTKLTVL
Marked response: 1.5
